assay-text: Single dose PK, phase 1, healthy European men
Type: in vivo, human
condition-description: male, human, plasma, subcutaneous, 2-hour INF 3 mg, geometric mean
Where a SMILES comes first, the peptide text is derived from it. [ ]: non-standard residue; d: D form. Arg(Me) = CNC(=N)NCCC[C@H](N)C(=O)O; Hyp = O=C(O)[C@@H]1C[C@@H](O)CN1; azaGly = NNC(=O)O
measurement-kind: AUC(0-t)
Include the unit right after the number.

Would you mind telling me what AUC(0-t) value was observed for CC(=O)O.CNC(=N)NCCC[C@H](NC(=O)[C@H](CC(C)C)NC(=O)NNC(=O)[C@H](Cc1ccccc1)NC(=O)[C@@H](NC(=O)[C@H](CC(N)=O)NC(=O)[C@@H]1C[C@@H](O)CN1C(=O)[C@@H](Cc1ccc(O)cc1)NC(C)=O)[C@@H](C)O)C(=O)N[C@@H](Cc1c[nH]c2ccccc12)C(N)=O [API-MA] (Ac-[dY][Hyp]NTF[azaGly]L[Arg(Me)]W-NH2) ?
141 ng·h/mL

----------
assay-text: Multiple-dose PK, SC bolus then continuous 13-day SC infusion, healthy European men
condition-description: male, human, plasma, sc, 0.1 mg, AUC (0-tlqc) (equal to AUC (0-24)), European men, SC bolus 0.1 mg on Day 1, dosing group 0.01 mg/day, geometric mean (% CV)
Where a SMILES comes first, the peptide text is derived from it. [ ]: non-standard residue; d: D form. Arg(Me) = CNC(=N)NCCC[C@H](N)C(=O)O; Hyp = O=C(O)[C@@H]1C[C@@H](O)CN1; azaGly = NNC(=O)O
measurement-kind: AUC(0-t) (ng·h/mL)
Please give a number only; it is taken to be in ng·h/mL.

Can you share its AUC(0-t)? I mean this compound: CC(=O)O.CNC(=N)NCCC[C@H](NC(=O)[C@H](CC(C)C)NC(=O)NNC(=O)[C@H](Cc1ccccc1)NC(=O)[C@@H](NC(=O)[C@H](CC(N)=O)NC(=O)[C@@H]1C[C@@H](O)CN1C(=O)[C@@H](Cc1ccc(O)cc1)NC(C)=O)[C@@H](C)O)C(=O)N[C@@H](Cc1c[nH]c2ccccc12)C(N)=O [API-MA] (Ac-[dY][Hyp]NTF[azaGly]L[Arg(Me)]W-NH2)
5.08

----------
assay-text: Single dose PK, phase 1, healthy Japanese men
Format: in vivo, human
condition-description: male, human, plasma, sc, 0.5 mg, single SC bolus 0.5 mg, read-out: Tmax, median (range)
Where a SMILES comes first, the peptide text is derived from it. [ ]: non-standard residue; d: D form. Arg(Me) = CNC(=N)NCCC[C@H](N)C(=O)O; Hyp = O=C(O)[C@@H]1C[C@@H](O)CN1; azaGly = NNC(=O)O
measurement-kind: Tmax (min)
Supply the numeric figure in min, leaving out any unit text.

Dear colleague, I am looking for the recorded Tmax of the following molecule: CC(=O)O.CNC(=N)NCCC[C@H](NC(=O)[C@H](CC(C)C)NC(=O)NNC(=O)[C@H](Cc1ccccc1)NC(=O)[C@@H](NC(=O)[C@H](CC(N)=O)NC(=O)[C@@H]1C[C@@H](O)CN1C(=O)[C@@H](Cc1ccc(O)cc1)NC(C)=O)[C@@H](C)O)C(=O)N[C@@H](Cc1c[nH]c2ccccc12)C(N)=O [API-MA] (Ac-[dY][Hyp]NTF[azaGly]L[Arg(Me)]W-NH2)
30
